Listed here: items and their measured combination Emax.
Test system: SW1088 (Low Grade Glioma)
method description: combination Emax (second highest fraction inhibited in the dose matrix, 72 h); higher = more inhibition; extreme values may be limits of the assay
attribute measured: combination Emax

compound	recorded value
Cn1cnc2c(F)c(Nc3ccc(Br)cc3Cl)c(C(=O)NOCCO)cc21 [Selumetinib] + C[C@@H]1COCCN1C2=NC(=NC(=C2)C3(CC3)[S@](=N)(=O)C)C4=C5C=CNC5=NC=C4 [AZD6738] (first compound max 10 µM, 7x7, partner max 10 µM)	0.65
COc1nnc2ccc(N3CCC(c4ccc(OCCN5CCN(C)C(=O)[C@H]5C)cc4)CC3)nn12 [AZD5153] + C[C@@H]1COCCN1C2=NC(=NC(=C2)C3(CC3)[S@](=N)(=O)C)C4=C5C=CNC5=NC=C4 [AZD6738] (first compound max 1 µM, 7x7, partner max 10 µM)	0.645
C[C@@H]1COCCN1c1cc(C2([S@](C)(=N)=O)CC2)nc(-c2ccnc3[nH]ccc23)n1 [AZD6738] + O=C(c1cc(Cc2n[nH]c(=O)c3ccccc23)ccc1F)N1CCN(C(=O)C2CC2)CC1 [Olaparib] (first compound max 10 µM, 7x7, partner max 10 µM)	0.501
CS(=O)(=O)CCNCc1ccc(-c2ccc3ncnc(Nc4ccc(OCc5cccc(F)c5)c(Cl)c4)c3c2)o1 [Lapatinib] + NC1(c2ccc(-c3nc4ccn5c(=O)[nH]nc5c4cc3-c3ccccc3)cc2)CCC1 [MK-2206] (first compound max 10 µM, 7x7, partner max 10 µM)	0.624

----------
Tested on: KARPAS-620 (Plasma Cell Myeloma)
method description: Bliss excess, mean over the matrix (fraction); higher = more synergy
Listed here: items and their measured Bliss excess.

molecule	Bliss excess
CN(C)CCCOc1ccc(-c2ccc3ncc4c(c3c2)n(C2CCOCC2)c(=O)n4C)cn1 [AZD0156] + CCN(CCO)CCCOc1ccc2c(Nc3cc(CC(=O)Nc4cccc(F)c4)[nH]n3)ncnc2c1 [AZD2811] (first compound max 1 µM, 7x7, partner max 1 µM)	0.112
Cc1c2c(nn1C)CSCc1cc(n(C)n1)CSc1cc(c3ccccc3c1)OCCCc1c(C(=O)O)n(C)c3c-2c(Cl)ccc13 [AZD5991] + CN(C)CCCOc1ccc(-c2ccc3ncc4c(c3c2)n(C2CCOCC2)c(=O)n4C)cn1 [AZD0156] (first compound max 1 µM, 7x7, partner max 1 µM)	0.02
CN(CCO)CC[C@H](CSc1ccccc1)Nc1ccc(S(=O)(=O)NC(=O)c2ccc(N3CCC([C@@H](O)c4ccccc4-c4ccc(Cl)cc4)CC3)cc2)cc1S(=O)(=O)C(F)(F)F [AZD4320] + C[C@@H]1COCCN1C2=NC(=NC(=C2)C3(CC3)[S@](=N)(=O)C)C4=C5C=CNC5=NC=C4 [AZD6738] (first compound max 1 µM, 7x7, partner max 10 µM)	-0.0028

----------
System: HPAC (Pancreatic Carcinoma)
method description: combination Emax (second highest fraction inhibited in the dose matrix, 72 h); higher = more inhibition; extreme values may be limits of the assay
attribute measured: combination Emax

molecule	attribute measured	recorded value
Cc1c2c(nn1C)CSCc1cc(n(C)n1)CSc1cc(c3ccccc3c1)OCCCc1c(C(=O)O)n(C)c3c-2c(Cl)ccc13 [AZD5991] + Cc1cc2ncnn2cc1Nc1ncc2c(n1)n(C1CCOCC1)c(=O)n2C [AZD7648] (first compound max 1 µM, 7x7, partner max 10 µM)	combination Emax	0.254
CC1(C)CCC(CN2CCN(c3ccc(C(=O)NS(=O)(=O)c4ccc(NCC5CCOCC5)c([N+](=O)[O-])c4)c(Oc4cnc5[nH]ccc5c4)c3)CC2)=C(c2ccc(Cl)cc2)C1 [Venetoclax] + C[C@@H](Nc1cc(F)cc(F)c1)c1cc(C(=O)N(C)C)cc2c(=O)cc(N3CCOCC3)oc12 [AZD8186] (first compound max 1 µM, 7x7, partner max 3 µM)	combination Emax	0.211
CC(=O)Nc1cccc(-n2c(=O)n(C3CC3)c(=O)c3c(Nc4ccc(I)cc4F)n(C)c(=O)c(C)c32)c1 [Trametinib] + Cc1nc(-c2cn3c(n2)-c2ccc(-c4cnn(C(C)(C)C(N)=O)c4)cc2OCC3)n(C(C)C)n1 [Taselisib] (first compound max 1 µM, 7x7, partner max 10 µM)	combination Emax	1
Cc1c2c(nn1C)CSCc1cc(n(C)n1)CSc1cc(c3ccccc3c1)OCCCc1c(C(=O)O)n(C)c3c-2c(Cl)ccc13 [AZD5991] + C[C@@H]1COCCN1C2=NC(=NC(=C2)C3(CC3)[S@](=N)(=O)C)C4=C5C=CNC5=NC=C4 [AZD6738] (first compound max 1 µM, 7x7, partner max 10 µM)	combination Emax	0.683

----------
Tested on: CTV-1 (T-Lymphoblastic Leukemia)
method description: combination Emax (second highest fraction inhibited in the dose matrix, 72 h); higher = more inhibition; extreme values may be limits of the assay
Listed here: items and their measured combination Emax.
attribute measured: combination Emax

compound	attribute measured	recorded value
C[C@@H](c1ccc2nccn2c1)n1nnc2ncc(-c3cnn(C)c3)nc21 [Savolitinib] + CC1(C)CCC(CN2CCN(c3ccc(C(=O)NS(=O)(=O)c4ccc(NCC5CCOCC5)c([N+](=O)[O-])c4)c(Oc4cnc5[nH]ccc5c4)c3)CC2)=C(c2ccc(Cl)cc2)C1 [Venetoclax] (first compound max 1 µM, 7x7, partner max 1 µM)	combination Emax	0.091
COc1nnc2ccc(N3CCC(c4ccc(OCCN5CCN(C)C(=O)[C@H]5C)cc4)CC3)nn12 [AZD5153] + CC1(C)CCC(CN2CCN(c3ccc(C(=O)NS(=O)(=O)c4ccc(NCC5CCOCC5)c([N+](=O)[O-])c4)c(Oc4cnc5[nH]ccc5c4)c3)CC2)=C(c2ccc(Cl)cc2)C1 [Venetoclax] (first compound max 1 µM, 7x7, partner max 1 µM)	combination Emax	0.963
COc1cccc(OCCCN)c1-c1cc(Nc2cnc(C#N)cn2)n[nH]1 [Prexasertib] + C=CCn1c(=O)c2cnc(Nc3ccc(N4CCN(C)CC4)cc3)nc2n1-c1cccc(C(C)(C)O)n1 [AZD1775] (first compound max 1 µM, partner max 1 µM)	combination Emax	1

----------
System: DOV13 (Ovarian Carcinoma)
method description: combination Emax (second highest fraction inhibited in the dose matrix, 72 h); higher = more inhibition; extreme values may be limits of the assay
Listed here: items and their measured combination Emax.

compound	combination Emax
Cc1cc2ncnn2cc1Nc1ncc2c(n1)n(C1CCOCC1)c(=O)n2C [AZD7648] + CN(C)CCCOc1ccc(-c2ccc3ncc4c(c3c2)n(C2CCOCC2)c(=O)n4C)cn1 [AZD0156] (first compound max 10 µM, 7x7, partner max 1 µM)	0.325
C[C@@H](c1ccc2nccn2c1)n1nnc2ncc(-c3cnn(C)c3)nc21 [Savolitinib] + Cc1c2c(nn1C)CSCc1cc(n(C)n1)CSc1cc(c3ccccc3c1)OCCCc1c(C(=O)O)n(C)c3c-2c(Cl)ccc13 [AZD5991] (first compound max 1 µM, 7x7, partner max 1 µM)	0.153
CC1(C)CCC(CN2CCN(c3ccc(C(=O)NS(=O)(=O)c4ccc(NCC5CCOCC5)c([N+](=O)[O-])c4)c(Oc4cnc5[nH]ccc5c4)c3)CC2)=C(c2ccc(Cl)cc2)C1 [Venetoclax] + C[C@@H]1COCCN1C2=NC(=NC(=C2)C3(CC3)[S@](=N)(=O)C)C4=C5C=CNC5=NC=C4 [AZD6738] (first compound max 1 µM, 7x7, partner max 10 µM)	0.91
Cc1c2c(nn1C)CSCc1cc(n(C)n1)CSc1cc(c3ccccc3c1)OCCCc1c(C(=O)O)n(C)c3c-2c(Cl)ccc13 [AZD5991] + Cc1cc2ncnn2cc1Nc1ncc2c(n1)n(C1CCOCC1)c(=O)n2C [AZD7648] (first compound max 1 µM, 7x7, partner max 10 µM)	0.458

----------
Listed here: items and their measured Bliss excess.
System: NCI-H1299 (Non-Small Cell Lung Carcinoma)
method description: Bliss excess, mean over the matrix (fraction); higher = more synergy

compound	Bliss excess
COc1cccc(OCCCN)c1-c1cc(Nc2cnc(C#N)cn2)n[nH]1 [Prexasertib] + CN(C)CCCOc1ccc(-c2ccc3ncc4c(c3c2)n(C2CCOCC2)c(=O)n4C)cn1 [AZD0156] (first compound max 1 µM, 7x7, partner max 1 µM)	-0.0332
CN(CCO)CC[C@H](CSc1ccccc1)Nc1ccc(S(=O)(=O)NC(=O)c2ccc(N3CCC([C@@H](O)c4ccccc4-c4ccc(Cl)cc4)CC3)cc2)cc1S(=O)(=O)C(F)(F)F [AZD4320] + C[C@@H]1COCCN1C2=NC(=NC(=C2)C3(CC3)[S@](=N)(=O)C)C4=C5C=CNC5=NC=C4 [AZD6738] (first compound max 1 µM, 7x7, partner max 10 µM)	-0.016
CC1(C)CCC(CN2CCN(c3ccc(C(=O)NS(=O)(=O)c4ccc(NCC5CCOCC5)c([N+](=O)[O-])c4)c(Oc4cnc5[nH]ccc5c4)c3)CC2)=C(c2ccc(Cl)cc2)C1 [Venetoclax] + Cc1cc2ncnn2cc1Nc1ncc2c(n1)n(C1CCOCC1)c(=O)n2C [AZD7648] (first compound max 1 µM, 7x7, partner max 10 µM)	-0.0352
